Provide the reported polymerase ribozyme fitness (log ratio) of each item.
B1: TPR 5TU (parent)
chain: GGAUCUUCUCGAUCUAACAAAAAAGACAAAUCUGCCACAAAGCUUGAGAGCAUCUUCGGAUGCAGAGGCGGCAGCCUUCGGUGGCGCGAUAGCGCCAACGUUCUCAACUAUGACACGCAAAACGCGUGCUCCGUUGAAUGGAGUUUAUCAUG

# Variants of: B1
# MEASUREMENT NOTES: polymerase ribozyme fitness, log enrichment relative to wild type (log ratio); higher = more active; in vitro selection for triplet polymerase activity
Variants at the floor of the assay were thinned out.

Return reported polymerase ribozyme fitness (log ratio). Input variant: U31G C54A G88A G126A G141A ≤ -4.2

Determine from records and report polymerase ribozyme fitness (log ratio) for C75G U78C C99U C132G ≤ -4.2

Write down polymerase ribozyme fitness (log ratio) measured for item C54G A97G -0.818

Supply reported polymerase ribozyme fitness (log ratio) belonging to this variant: G11U C14G A26G U33G C57A C99G A120G ≤ -4.2

Look up polymerase ribozyme fitness (log ratio) of C85U C95A G136U A138C and report it. ≤ -4.2

State, in one line, measured polymerase ribozyme fitness (log ratio) of G58A A107U G126U C149G ≤ -4.2

Output measured polymerase ribozyme fitness (log ratio) for this item: U13G A21U A22C U82G G92U A98C C116U G136A -4.02

// Input: U45A A49G G84U A115G A120G . Output its polymerase ribozyme fitness (log ratio) only. ≤ -4.2

// Input: A47G C99A A142U . Output its polymerase ribozyme fitness (log ratio) only. -2.48

Answer with reported polymerase ribozyme fitness (log ratio) of C57U A97U -1.22

Look up and report measured polymerase ribozyme fitness (log ratio) for this entry: U53A U55A C96A U127C A138U ≤ -4.2

Reference source: the RNAGym collection of RNA variant scans (doi:10.1073/pnas.2313332121)
